System name: T1, MMR (UniProt P22897 19-1383)
T1 sequence (looked up): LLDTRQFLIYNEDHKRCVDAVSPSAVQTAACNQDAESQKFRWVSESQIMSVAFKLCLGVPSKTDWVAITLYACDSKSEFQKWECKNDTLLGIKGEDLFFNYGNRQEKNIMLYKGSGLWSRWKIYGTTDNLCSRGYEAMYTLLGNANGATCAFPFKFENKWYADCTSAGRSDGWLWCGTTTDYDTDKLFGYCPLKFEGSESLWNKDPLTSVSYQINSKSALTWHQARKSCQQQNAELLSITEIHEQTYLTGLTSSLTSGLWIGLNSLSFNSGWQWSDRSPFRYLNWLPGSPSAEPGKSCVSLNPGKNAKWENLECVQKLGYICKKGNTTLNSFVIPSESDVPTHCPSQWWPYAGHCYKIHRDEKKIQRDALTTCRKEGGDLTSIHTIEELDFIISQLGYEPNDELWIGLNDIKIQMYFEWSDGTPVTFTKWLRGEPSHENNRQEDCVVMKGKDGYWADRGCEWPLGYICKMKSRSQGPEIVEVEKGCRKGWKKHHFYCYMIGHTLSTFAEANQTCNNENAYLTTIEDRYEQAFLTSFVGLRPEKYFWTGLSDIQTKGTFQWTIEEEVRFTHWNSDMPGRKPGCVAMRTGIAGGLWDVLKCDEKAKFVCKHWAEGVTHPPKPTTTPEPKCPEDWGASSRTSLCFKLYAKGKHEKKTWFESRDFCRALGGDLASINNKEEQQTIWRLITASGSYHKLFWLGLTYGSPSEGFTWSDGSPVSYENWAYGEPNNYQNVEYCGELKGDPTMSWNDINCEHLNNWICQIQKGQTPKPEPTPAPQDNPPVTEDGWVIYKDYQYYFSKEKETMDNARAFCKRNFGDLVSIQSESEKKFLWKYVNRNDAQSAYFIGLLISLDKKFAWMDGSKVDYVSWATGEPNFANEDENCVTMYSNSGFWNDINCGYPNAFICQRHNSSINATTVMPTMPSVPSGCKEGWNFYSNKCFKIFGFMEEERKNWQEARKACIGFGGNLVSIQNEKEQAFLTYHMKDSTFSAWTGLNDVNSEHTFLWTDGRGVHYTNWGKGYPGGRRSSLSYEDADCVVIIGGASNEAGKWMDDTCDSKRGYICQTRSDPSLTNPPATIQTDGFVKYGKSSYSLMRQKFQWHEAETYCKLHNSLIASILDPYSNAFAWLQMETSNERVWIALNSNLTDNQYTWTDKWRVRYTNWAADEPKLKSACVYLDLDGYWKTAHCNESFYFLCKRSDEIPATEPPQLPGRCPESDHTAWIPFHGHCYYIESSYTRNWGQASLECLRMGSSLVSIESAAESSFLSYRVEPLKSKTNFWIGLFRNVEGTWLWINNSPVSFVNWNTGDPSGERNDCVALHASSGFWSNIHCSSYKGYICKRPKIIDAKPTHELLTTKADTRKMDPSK
Assay details: ELISA

{"columns": ["Binder", "binding result"],
 "data": [
  ["[change]/[change]/[change]/[change] (other) NKTHTCPPCPAPELLGGPSVFLFPPKPKDTLMISRTPEVTCVVVDVSHEDPEVKFNWYVDGVEVHNAKTKPREEQYASTYRVVSVLTVCLQDWLNGKEYKCKVSNKALPAPIEKTISKAKGQPREPQVYTLPPSREEMTKNQVSLTCLVKGFYPSDIAVEWESNGQPENNYKTTPPVLDSDGSFFLYSKLTVDKSRWQQGNVFSCSVMHEALHNHYTQKSLSLSPGKLVLGPPLYAVSLVMSDTAGTAY", "no binding"],
  ["[change]/[change] (other) NKTHTCPPCPAPELLGGPSVFLFPPKPKDTLMISRTPEVTCVVVDVSHEDPEVKFNWYVDGVEVHNAKTKPREEQYNSTYRVVSVLTVCLQDWLNGKEYKCKVSNKALPAPIEKTISKAKGQPREPQVYTLPPSREEMTKNQVSLTCLVKGFYPSDIAVEWESNGQPENNYKTTPPVLDSDGSFFLYSKLTVDKSRWQQGNVFSCSVMHEALHNHYTQKSLSLSPGKLVLGPPLYNVSLVMSDTAGTAY", "no binding"]
]}
